molecular target: SARS-CoV-2 RBD.mmh (Spike amino acids Arg319-Phe541 with C-terminal myc-myc-6-Histidine tag) (SARS-CoV-2, UniProt P0DTC2 319-541)
attribute-measured: IC50
Mention the unit after the number when you answer.

{"binder": "mAb15170 (antibody, V domains shown) VH: EVQLVESGGGLVQPGGSLRLSCAATGITVSSNYMSWVRQAPGKGLEWVSLIYSGGSTFYADSVKGRFTISRHNSKNTLYLQMSSLRAEDTAVYYCARDLVDFGMDVWGQGTTVTVSS VL: DIQLTQSPSSLSASVGDRVTITCRASQGISNYLAWYQQKPGKAPKLLIYAASTLQSGVPSRFSGSGSGTDFTLTISSLQPEDFGTYYCQQLNSDSPTFGQGTKVEIKR", "attribute-measured": "IC50", "result": "0.102 nM"}

Let us examine a further case.
Please report the recorded IC50 for mAb14281 (antibody, V domains shown) VH: QVQLVQSGADVKKPGASVKVSCKTSGYIFTGYYIHWVRQAPGQGLEWMGWINPNSGGTNSAQKFQGRVTMTRDTSISTVYMELSRLRSDDTAVYYCAKSNSFSVLDYNFDYWGQGTLVTVSS VL: SSELTQDPAVSVALGQTVRITCQGDSLRSYYASWYQQKPGQAPVLVIYDKNNRPSGIPDRFSGSSSGNTASLTITGAQAEDEADYYCNSRDSSRNHLVVFGGGTKLTVLG .
0.397 nM
